# target.under.test: Cathepsin B (Homo sapiens, UniProt P07858)
# assay.summary: Inhibition of human recombinant Cathepsin B assessed as ratio of Kinact/Kiapp using Z-FR-AMC as substrate inubated for 30 mins by fluorometric assay
reported.endpoint: Ratio

Q: What measured Ratio goes with `COC1=CC(=O)N(C(=O)/C=C/[C@H](CCc2ccccc2)NC(=O)[C@H](CC(C)C)NC(=O)[C@H](CC(C)C)NC(=O)[C@H](C(C)C)N(C)C)[C@H]1Cc1c[nH]c2ccccc12` ?
Result: 7.94 10^3/s/M

Q: Given `COC1=CC(=O)N(C(=O)/C=C/[C@H](C)NC(=O)[C@H](CC(C)C)NC(=O)[C@H](CC(C)C)NC(=O)C2CCN(C)CC2)[C@H]1Cc1c[nH]c2ccccc12` , state its recorded Ratio.
Result: 1.99 10^4/s/M

Q: Give the measured Ratio of `COC1=CC(=O)N(C(=O)/C=C/[C@H](C)NC(=O)[C@H](CC(C)C)NC(=O)[C@H](CC2CCCCC2)NC(=O)C2CCN(C)CC2)[C@H]1Cc1c[nH]c2ccccc12` .
Result: 2.43 10^4/s/M

Q: Value lookup for Ratio; key = `COC1=CC(=O)N(C(=O)/C=C/[C@H](C)NC(=O)[C@H](CCc2ccccc2)NC(=O)[C@H](CC2CCCCC2)NC(=O)[C@H](C(C)C)N(C)C)[C@H]1Cc1c[nH]c2ccccc12`
Result: 9.65 10^3/s/M

----------
# target.under.test: Procathepsin L (Homo sapiens, UniProt P07711)
# assay.summary: Inhibition of human recombinant Cathepsin L assessed as Kinact using Z-FR-AMC as substrate inubated for 30 mins by fluorometric assay
# Sequence (P07711 114-333 limits assumed): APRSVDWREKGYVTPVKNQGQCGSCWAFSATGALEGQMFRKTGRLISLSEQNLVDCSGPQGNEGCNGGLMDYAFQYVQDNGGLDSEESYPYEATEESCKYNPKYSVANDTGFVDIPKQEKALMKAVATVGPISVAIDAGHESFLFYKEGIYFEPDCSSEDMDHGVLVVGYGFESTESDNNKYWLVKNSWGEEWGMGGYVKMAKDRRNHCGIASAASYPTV
Would you mind telling me the reported Kinact of each entry?

Q: Reported Kinact for Procathepsin L (Homo sapiens, UniProt P07711), given `COC1=CC(=O)N(C(=O)/C=C/[C@H](CCc2ccccc2)NC(=O)[C@H](CC(C)C)NC(=O)[C@H](CC(C)C)NC(=O)[C@H](C(C)C)N(C)C)[C@H]1Cc1c[nH]c2ccccc12` ?
Result: 9.85 10^-3/s

Q: // map `COC1=CC(=O)N(C(=O)/C=C/[C@H](C)NC(=O)[C@H](CCc2ccccc2)NC(=O)[C@H](CC2CCCCC2)NC(=O)[C@H](C(C)C)N(C)C)[C@H]1Cc1c[nH]c2ccccc12` to recorded Kinact (system: Procathepsin L (Homo sapiens, UniProt P07711))
Result: 5.87 10^-3/s

Q: Tell me reported Kinact for `COC1=CC(=O)N(C(=O)/C=C/[C@H](C)NC(=O)[C@H](CC(C)C)NC(=O)[C@H](CC2CCCCC2)NC(=O)C2CCN(C)CC2)[C@H]1Cc1c[nH]c2ccccc12` , tested with Procathepsin L (Homo sapiens, UniProt P07711).
Result: 3.47 10^-3/s

Q: What is its Kinact for Procathepsin L (Homo sapiens, UniProt P07711)? Entry: CC[C@H](C)[C@@H](C(=O)O[C@@H](CC(C)C)C(=O)N[C@@H](CC(C)C)C(=O)N[C@@H](C)/C=C/C(=O)N1C(=O)C=C(OC)[C@@H]1C)N(C)C [GALLINAMIDE A]
Result: 4.75 10^-3/s

Q: Checklist item: Kinact tested on Procathepsin L (Homo sapiens, UniProt P07711), entry `COC1=CC(=O)N(C(=O)/C=C/[C@H](C)NC(=O)[C@H](CC(C)C)NC(=O)[C@H](CC(C)C)NC(=O)C2CCN(C)CC2)[C@H]1Cc1c[nH]c2ccccc12` , value?
Result: 8.34 10^-3/s

----------
Please respond with reported pKi for every item in the list.
# target.under.test: Procathepsin L (Homo sapiens, UniProt P07711)
# assay.summary: Inhibition of human recombinant Cathepsin L assessed as Apparent inhibition constant using Z-FR-AMC as substrate […] by fluorometric assay
# recorded.conditions: read-out: Ki(app)
# Sequence (P07711 whole entry): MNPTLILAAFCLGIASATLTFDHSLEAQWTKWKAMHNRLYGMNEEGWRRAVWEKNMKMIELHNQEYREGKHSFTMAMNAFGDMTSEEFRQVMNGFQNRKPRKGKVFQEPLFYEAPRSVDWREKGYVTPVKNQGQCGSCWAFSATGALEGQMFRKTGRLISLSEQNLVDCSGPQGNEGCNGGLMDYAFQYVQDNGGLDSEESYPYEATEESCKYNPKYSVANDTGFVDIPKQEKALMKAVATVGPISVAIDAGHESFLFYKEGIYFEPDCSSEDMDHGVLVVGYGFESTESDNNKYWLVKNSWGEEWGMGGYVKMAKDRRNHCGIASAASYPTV
// returns pKi (minus log10 of molar concentration), number only

Q: State the recorded pKi for this entry: `COC1=CC(=O)N(C(=O)/C=C/[C@H](CCc2ccccc2)NC(=O)[C@H](CC(C)C)NC(=O)[C@H](CC(C)C)NC(=O)[C@H](C(C)C)N(C)C)[C@H]1Cc1c[nH]c2ccccc12`
Result: 7.93

Q: Which pKi reading was recorded for the compound `COC1=CC(=O)N(C(=O)/C=C/[C@H](C)NC(=O)[C@H](CC(C)C)NC(=O)[C@H](CC2CCCCC2)NC(=O)C2CCN(C)CC2)[C@H]1Cc1c[nH]c2ccccc12` ?
Result: 7.74

Q: Endpoint output: pKi of CC[C@H](C)[C@@H](C(=O)O[C@@H](CC(C)C)C(=O)N[C@@H](CC(C)C)C(=O)N[C@@H](C)/C=C/C(=O)N1C(=O)C=C(OC)[C@@H]1C)N(C)C [GALLINAMIDE A] . Value?
Result: 8.10

----------
Hi there, I'd appreciate the recorded CC50 for every entry that follows.
# System: Vero C1008
# assay.summary: Cytotoxicity against cells African green monkey Vero E6 cells incubated for 24 to 72 hrs by alamar blue assay
# Type: toxicity, cell-based
# recorded.conditions: chlorocebus sabaeus, time 24-72 hrs

Q: Report CC50 for `COC1=CC(=O)N(C(=O)/C=C/[C@H](C)NC(=O)[C@H](CC(C)C)NC(=O)[C@H](CC2CCCCC2)NC(=O)C2CCN(C)CC2)[C@H]1Cc1c[nH]c2ccccc12` please.
Result: > 100 µM

Q: Field request: CC50 | item: `COC1=CC(=O)N(C(=O)/C=C/[C@H](CCc2ccccc2)NC(=O)[C@H](CC(C)C)NC(=O)[C@H](CC(C)C)NC(=O)[C@H](C(C)C)N(C)C)[C@H]1Cc1c[nH]c2ccccc12`
Result: > 100 µM

Q: Requested field: CC50. Item: `COC1=CC(=O)N(C(=O)/C=C/[C@H](C)NC(=O)[C@H](CC(C)C)NC(=O)[C@H](CC(C)C)NC(=O)C2CCN(C)CC2)[C@H]1Cc1c[nH]c2ccccc12`
Result: > 100 µM

Q: Return reported CC50; argument: `COC1=CC(=O)N(C(=O)/C=C/[C@H](C)NC(=O)[C@H](CCc2ccccc2)NC(=O)[C@H](CC2CCCCC2)NC(=O)[C@H](C(C)C)N(C)C)[C@H]1Cc1c[nH]c2ccccc12`
Result: > 100 µM

Q: Given the entry CC[C@H](C)[C@@H](C(=O)O[C@@H](CC(C)C)C(=O)N[C@@H](CC(C)C)C(=O)N[C@@H](C)/C=C/C(=O)N1C(=O)C=C(OC)[C@@H]1C)N(C)C [GALLINAMIDE A] , report its measured CC50.
Result: > 100 µM

----------
For each of the compounds below, state its IC50.
# target.under.test: Cathepsin L2 (Homo sapiens, UniProt O60911)
# Sequence (O60911 whole entry): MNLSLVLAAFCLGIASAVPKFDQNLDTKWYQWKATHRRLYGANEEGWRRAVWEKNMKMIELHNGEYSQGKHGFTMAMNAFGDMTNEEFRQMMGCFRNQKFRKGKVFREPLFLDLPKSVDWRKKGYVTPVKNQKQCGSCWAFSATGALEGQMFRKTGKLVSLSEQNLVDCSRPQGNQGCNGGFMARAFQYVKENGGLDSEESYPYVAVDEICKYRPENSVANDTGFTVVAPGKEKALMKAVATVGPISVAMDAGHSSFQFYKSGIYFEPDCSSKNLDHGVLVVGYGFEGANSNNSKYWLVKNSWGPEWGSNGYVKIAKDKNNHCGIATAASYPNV
# assay.summary: Inhibition of human recombinant Cathepsin V assessed remaining activity using Z-FR-AMC as substrate incubated for 30 mins by fluorometric assay
Kindly answer with a numeric value in nM, unit omitted.

Q: Could you tell me which IC50 is on file for `COC1=CC(=O)N(C(=O)/C=C/[C@H](C)NC(=O)[C@H](CC(C)C)NC(=O)[C@H](CC(C)C)NC(=O)C2CCN(C)CC2)[C@H]1Cc1c[nH]c2ccccc12` ?
Result: 63.2

Q: Query: IC50; subject: `COC1=CC(=O)N(C(=O)/C=C/[C@H](C)NC(=O)[C@H](CC(C)C)NC(=O)[C@H](CC2CCCCC2)NC(=O)C2CCN(C)CC2)[C@H]1Cc1c[nH]c2ccccc12`
Result: 20.6

Q: Any idea what IC50 was measured for `COC1=CC(=O)N(C(=O)/C=C/[C@H](C)NC(=O)[C@H](CCc2ccccc2)NC(=O)[C@H](CC2CCCCC2)NC(=O)[C@H](C(C)C)N(C)C)[C@H]1Cc1c[nH]c2ccccc12` ?
Result: 186

Q: Which measured IC50 value corresponds to CC[C@H](C)[C@@H](C(=O)O[C@@H](CC(C)C)C(=O)N[C@@H](CC(C)C)C(=O)N[C@@H](C)/C=C/C(=O)N1C(=O)C=C(OC)[C@@H]1C)N(C)C [GALLINAMIDE A] ?
Result: 697

Q: Given `COC1=CC(=O)N(C(=O)/C=C/[C@H](CCc2ccccc2)NC(=O)[C@H](CC(C)C)NC(=O)[C@H](CC(C)C)NC(=O)[C@H](C(C)C)N(C)C)[C@H]1Cc1c[nH]c2ccccc12` , state its recorded IC50.
Result: 419

----------
# target.under.test: Cathepsin S (Homo sapiens, UniProt P25774)
# Sequence (P25774 whole entry): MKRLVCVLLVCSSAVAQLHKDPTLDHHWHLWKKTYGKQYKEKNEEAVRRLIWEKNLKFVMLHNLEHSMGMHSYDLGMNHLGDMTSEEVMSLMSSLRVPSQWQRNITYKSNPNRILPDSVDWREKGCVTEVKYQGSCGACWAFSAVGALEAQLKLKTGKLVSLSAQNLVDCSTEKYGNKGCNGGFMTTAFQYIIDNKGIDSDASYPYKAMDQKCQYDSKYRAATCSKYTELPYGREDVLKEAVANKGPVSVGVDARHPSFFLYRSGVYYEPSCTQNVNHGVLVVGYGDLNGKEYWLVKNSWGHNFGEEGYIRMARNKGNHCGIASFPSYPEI
# assay.summary: Inhibition of human recombinant Cathepsin S assessed remaining activity using Z-FR-AMC as substrate incubated for 30 mins by fluorometric assay
# strict inequality: IC50 < 0.2 nM yields fulfilled, everything else yields not fulfilled

Q: Is IC50 of `COC1=CC(=O)N(C(=O)/C=C/[C@H](C)NC(=O)[C@H](CC(C)C)NC(=O)[C@H](CC(C)C)NC(=O)C2CCN(C)CC2)[C@H]1Cc1c[nH]c2ccccc12` strictly below 0.2 nM?
Result: fulfilled

Q: Lab note: IC50 threshold 0.2 nM. Does this compound come in strictly under it? `COC1=CC(=O)N(C(=O)/C=C/[C@H](C)NC(=O)[C@H](CC(C)C)NC(=O)[C@H](CC2CCCCC2)NC(=O)C2CCN(C)CC2)[C@H]1Cc1c[nH]c2ccccc12`
Result: not fulfilled

Q: # check: IC50 < 0.2 nM for CC[C@H](C)[C@@H](C(=O)O[C@@H](CC(C)C)C(=O)N[C@@H](CC(C)C)C(=O)N[C@@H](C)/C=C/C(=O)N1C(=O)C=C(OC)[C@@H]1C)N(C)C [GALLINAMIDE A]
Result: not fulfilled

Q: API: query returns whether the compound falls strictly under 0.2 nM in IC50. Query: `COC1=CC(=O)N(C(=O)/C=C/[C@H](CCc2ccccc2)NC(=O)[C@H](CC(C)C)NC(=O)[C@H](CC(C)C)NC(=O)[C@H](C(C)C)N(C)C)[C@H]1Cc1c[nH]c2ccccc12`
Result: not fulfilled

Q: Consider the compound `COC1=CC(=O)N(C(=O)/C=C/[C@H](C)NC(=O)[C@H](CCc2ccccc2)NC(=O)[C@H](CC2CCCCC2)NC(=O)[C@H](C(C)C)N(C)C)[C@H]1Cc1c[nH]c2ccccc12` . Is its IC50 strictly less than 0.2 nM?
Result: not fulfilled
